System: mice
Assay: Neuropharmacological Assay (SmartCube): automated behavioral signature of compound-treated mice compared with a database of reference drug classes
Assay type: in vivo
Conditions: probability that activity matches this class of agents, 3.0 mg/kg i.p., 15 min before test
Structures can show the parent of a compound that is named as a salt.
Experimental endpoint: AP

Use the examples below as a reference point.
molecule="CC1(N)CCc2ccsc2C1 (single isomer, unassigned) [Compound 112, hydrochloride]" experimental_endpoint=AP result="ND (^ <4%)"
molecule="CNC1COc2csc(C)c2C1 (stereo not shown) [Compound 88, hydrochloride]" experimental_endpoint=AP result="++++ (≥74%)"
molecule="CNC1CCc2c(csc2C(F)(F)F)C1 (single isomer, unassigned) [Compound 63, hydrochloride]" experimental_endpoint=AP result="ND (^ <4%)"
molecule="CN(C)C1CCc2csc(C(F)(F)F)c2C1 (single isomer, unassigned) [Compound 120, hydrochloride]" experimental_endpoint=AP result="++++ (≥74%)"
molecule="CNC1CCc2c(F)sc(C)c2C1 (stereo not shown) [Compound 100, hydrochloride]" experimental_endpoint=AP result="++++ (≥74%)"

# evaluate next
Problem: Query for mice: what AP does the record show for CNC1CCc2c(Cl)csc2C1 (stereo not shown) [Compound 94, hydrochloride] ?
Result: ++++ (≥74%)
